target: thioredoxin reductase (TrxR), rat liver (Rattus norvegicus, UniProt O89049); construct: gene Txnrd1; assay: DTNB reduction assay with purified rat liver TrxR, […] min preincubation, […] nm
Sequence (O89049 whole entry): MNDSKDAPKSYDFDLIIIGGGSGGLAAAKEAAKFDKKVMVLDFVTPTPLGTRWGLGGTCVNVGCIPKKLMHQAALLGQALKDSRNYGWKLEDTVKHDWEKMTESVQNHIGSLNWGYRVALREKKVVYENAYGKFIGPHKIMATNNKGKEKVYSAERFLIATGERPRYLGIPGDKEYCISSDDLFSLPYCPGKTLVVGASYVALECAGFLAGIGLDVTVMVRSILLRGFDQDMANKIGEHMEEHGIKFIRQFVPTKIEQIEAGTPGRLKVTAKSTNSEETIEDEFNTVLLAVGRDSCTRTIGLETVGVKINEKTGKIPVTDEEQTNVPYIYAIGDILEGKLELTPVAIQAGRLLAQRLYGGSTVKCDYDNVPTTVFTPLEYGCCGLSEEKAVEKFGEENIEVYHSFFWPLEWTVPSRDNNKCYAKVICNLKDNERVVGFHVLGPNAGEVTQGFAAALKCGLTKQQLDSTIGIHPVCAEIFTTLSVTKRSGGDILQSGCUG
READOUT: IC50

> print(dat)
                                   compound  observed.result
1  CC[P+](CC)(CC)[Au-][C]#Cc1ccc(OC)cc1 [compound 1, complex 1]            50 nM
